# Target or test system: P/Q-type channels (α1A+α2δ+β1b cDNA subunits) (UniProt P54282)
# Protocol text: Whole cell patch clamp, tonic and frequency dependent block, P/Q-type channels in HEK 293 (Example 5)
# Assay type: cell-based
# Condition summary: α1A (P/Q-type), 0.2 Hz; read-out: Estimated IC50 (μM) 0.2 Hz
Entries and their measured IC50 follow.

{"Molecule": "COc1ccc(CN2CCN(C(c3ccc(F)cc3)c3ccc(F)cc3)CC2)c(OC)c1OC [39-36-1 Lomerizine, Lomerizine, reference compound]", "Target or test system": "P/Q-type channels (α1A+α2δ+β1b cDNA subunits) (UniProt P54282)", "IC50": "0.07 µM"}
{"Molecule": "Nc1ccc(/C=C/C(=O)N2CCN(C(=O)CCCCC(c3ccccc3)c3ccccc3)CC2)cc1", "Target or test system": "P/Q-type channels (α1A+α2δ+β1b cDNA subunits) (UniProt P54282)", "IC50": "0.12 µM"}
{"Molecule": "COc1ccc(/C=C/C(=O)N2CCN(C(=O)CCCCC(c3ccccc3)c3ccccc3)CC2)cc1 [SH-123A]", "Target or test system": "P/Q-type channels (α1A+α2δ+β1b cDNA subunits) (UniProt P54282)", "IC50": "0.07 µM"}
{"Molecule": "COc1cc(CN2CCN(CCCCCC(c3ccc(F)cc3)c3ccc(F)cc3)CC2)cc(OC)c1OC", "Target or test system": "P/Q-type channels (α1A+α2δ+β1b cDNA subunits) (UniProt P54282)", "IC50": "0.09 µM"}
{"Molecule": "O=C(CCCCC(c1ccccc1)c1ccccc1)N1CCC(NCC2CCCCC2)CC1", "Target or test system": "P/Q-type channels (α1A+α2δ+β1b cDNA subunits) (UniProt P54282)", "IC50": "0.07 µM"}
{"Molecule": "CC(=O)Nc1ccc(/C=C/C(=O)N2CCN(C(=O)CCCCC(c3ccccc3)c3ccccc3)CC2)cc1", "Target or test system": "P/Q-type channels (α1A+α2δ+β1b cDNA subunits) (UniProt P54282)", "IC50": "0.15 µM"}
{"Molecule": "O=C(CC(c1ccccc1)c1ccccc1)N1CCN(C(c2ccccc2)c2ccccc2)CC1", "Target or test system": "P/Q-type channels (α1A+α2δ+β1b cDNA subunits) (UniProt P54282)", "IC50": "0.12 µM"}
{"Molecule": "COc1cc(C(=O)N2CCN(C(c3ccc(F)cc3)c3ccc(F)cc3)CC2)cc(OC)c1OC", "Target or test system": "P/Q-type channels (α1A+α2δ+β1b cDNA subunits) (UniProt P54282)", "IC50": "0.11 µM"}
{"Molecule": "O=C(/C=C/c1ccc2c(c1)OCO2)N1CCN(C(=O)CCCCC(c2ccccc2)c2ccccc2)CC1 [SH-123B]", "Target or test system": "P/Q-type channels (α1A+α2δ+β1b cDNA subunits) (UniProt P54282)", "IC50": "0.13 µM"}
{"Molecule": "O=C(CCCCC(c1ccccc1)c1ccccc1)N1CCN(C/C=C/c2ccccc2)CC1 [MC-34D]", "Target or test system": "P/Q-type channels (α1A+α2δ+β1b cDNA subunits) (UniProt P54282)", "IC50": "0.08 µM"}

* * *

# Target or test system: N-type calcium channels (α1B+α2δ+β1b cDNA subunits) (Rattus norvegicus)
# Construct: expressed in transfected cells
# Sequence (Q02294 whole entry): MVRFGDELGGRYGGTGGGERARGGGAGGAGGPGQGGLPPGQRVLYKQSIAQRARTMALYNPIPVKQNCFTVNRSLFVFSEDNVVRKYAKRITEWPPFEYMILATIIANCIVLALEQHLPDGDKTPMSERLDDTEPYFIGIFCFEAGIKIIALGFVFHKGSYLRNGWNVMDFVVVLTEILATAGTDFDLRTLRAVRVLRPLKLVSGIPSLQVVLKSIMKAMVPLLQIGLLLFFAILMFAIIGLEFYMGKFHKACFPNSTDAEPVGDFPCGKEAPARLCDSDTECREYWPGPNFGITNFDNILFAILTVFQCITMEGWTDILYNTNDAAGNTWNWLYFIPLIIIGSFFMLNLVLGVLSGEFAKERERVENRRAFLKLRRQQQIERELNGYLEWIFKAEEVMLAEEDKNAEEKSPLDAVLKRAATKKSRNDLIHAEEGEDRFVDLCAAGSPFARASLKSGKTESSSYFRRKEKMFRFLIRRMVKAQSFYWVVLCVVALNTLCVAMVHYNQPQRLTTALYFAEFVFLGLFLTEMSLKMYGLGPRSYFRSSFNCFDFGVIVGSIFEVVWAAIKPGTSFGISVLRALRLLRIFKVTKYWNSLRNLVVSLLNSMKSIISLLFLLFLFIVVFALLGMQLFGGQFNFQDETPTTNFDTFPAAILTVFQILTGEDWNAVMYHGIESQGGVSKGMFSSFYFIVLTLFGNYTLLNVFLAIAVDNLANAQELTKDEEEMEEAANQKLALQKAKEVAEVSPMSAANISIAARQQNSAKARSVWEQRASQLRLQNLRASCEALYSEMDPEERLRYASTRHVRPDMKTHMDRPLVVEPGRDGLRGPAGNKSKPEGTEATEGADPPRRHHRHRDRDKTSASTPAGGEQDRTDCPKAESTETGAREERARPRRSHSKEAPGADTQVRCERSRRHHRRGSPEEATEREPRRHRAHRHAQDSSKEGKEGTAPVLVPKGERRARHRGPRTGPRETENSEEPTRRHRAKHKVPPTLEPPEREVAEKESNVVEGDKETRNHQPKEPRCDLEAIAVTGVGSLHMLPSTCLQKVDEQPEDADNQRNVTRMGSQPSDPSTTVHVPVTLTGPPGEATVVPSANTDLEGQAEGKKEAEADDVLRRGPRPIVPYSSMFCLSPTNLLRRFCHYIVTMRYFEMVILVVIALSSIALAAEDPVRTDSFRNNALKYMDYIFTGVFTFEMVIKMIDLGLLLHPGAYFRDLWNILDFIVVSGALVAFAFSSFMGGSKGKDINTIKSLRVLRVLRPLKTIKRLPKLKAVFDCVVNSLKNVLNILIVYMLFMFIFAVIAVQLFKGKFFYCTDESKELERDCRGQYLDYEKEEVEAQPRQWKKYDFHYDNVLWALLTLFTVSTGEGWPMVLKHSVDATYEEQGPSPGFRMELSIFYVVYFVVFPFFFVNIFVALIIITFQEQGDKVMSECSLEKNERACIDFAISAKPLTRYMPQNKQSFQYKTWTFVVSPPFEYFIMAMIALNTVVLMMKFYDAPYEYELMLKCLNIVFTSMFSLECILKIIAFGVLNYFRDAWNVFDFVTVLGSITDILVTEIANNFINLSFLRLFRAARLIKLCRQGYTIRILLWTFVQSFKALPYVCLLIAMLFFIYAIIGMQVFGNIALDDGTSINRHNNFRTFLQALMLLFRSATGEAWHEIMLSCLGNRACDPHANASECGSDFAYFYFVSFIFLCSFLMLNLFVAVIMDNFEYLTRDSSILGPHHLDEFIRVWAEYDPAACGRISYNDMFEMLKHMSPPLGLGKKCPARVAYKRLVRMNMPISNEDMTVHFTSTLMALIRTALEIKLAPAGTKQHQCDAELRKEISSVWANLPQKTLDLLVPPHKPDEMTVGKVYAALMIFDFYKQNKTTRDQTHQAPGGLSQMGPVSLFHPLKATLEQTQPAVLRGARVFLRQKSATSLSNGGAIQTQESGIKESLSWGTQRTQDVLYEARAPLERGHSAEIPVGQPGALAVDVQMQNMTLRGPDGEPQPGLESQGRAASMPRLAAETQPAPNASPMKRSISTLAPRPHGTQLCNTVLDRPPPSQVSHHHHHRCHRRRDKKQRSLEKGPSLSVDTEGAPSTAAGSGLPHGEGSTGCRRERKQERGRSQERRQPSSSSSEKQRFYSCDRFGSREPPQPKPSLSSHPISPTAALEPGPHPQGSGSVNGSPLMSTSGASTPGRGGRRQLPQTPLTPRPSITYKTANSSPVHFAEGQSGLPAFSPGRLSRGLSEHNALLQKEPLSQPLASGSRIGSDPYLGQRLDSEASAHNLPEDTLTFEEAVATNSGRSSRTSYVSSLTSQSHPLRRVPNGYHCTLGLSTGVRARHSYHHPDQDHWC
# Sequence (P54290 25-944 partner limits assumed): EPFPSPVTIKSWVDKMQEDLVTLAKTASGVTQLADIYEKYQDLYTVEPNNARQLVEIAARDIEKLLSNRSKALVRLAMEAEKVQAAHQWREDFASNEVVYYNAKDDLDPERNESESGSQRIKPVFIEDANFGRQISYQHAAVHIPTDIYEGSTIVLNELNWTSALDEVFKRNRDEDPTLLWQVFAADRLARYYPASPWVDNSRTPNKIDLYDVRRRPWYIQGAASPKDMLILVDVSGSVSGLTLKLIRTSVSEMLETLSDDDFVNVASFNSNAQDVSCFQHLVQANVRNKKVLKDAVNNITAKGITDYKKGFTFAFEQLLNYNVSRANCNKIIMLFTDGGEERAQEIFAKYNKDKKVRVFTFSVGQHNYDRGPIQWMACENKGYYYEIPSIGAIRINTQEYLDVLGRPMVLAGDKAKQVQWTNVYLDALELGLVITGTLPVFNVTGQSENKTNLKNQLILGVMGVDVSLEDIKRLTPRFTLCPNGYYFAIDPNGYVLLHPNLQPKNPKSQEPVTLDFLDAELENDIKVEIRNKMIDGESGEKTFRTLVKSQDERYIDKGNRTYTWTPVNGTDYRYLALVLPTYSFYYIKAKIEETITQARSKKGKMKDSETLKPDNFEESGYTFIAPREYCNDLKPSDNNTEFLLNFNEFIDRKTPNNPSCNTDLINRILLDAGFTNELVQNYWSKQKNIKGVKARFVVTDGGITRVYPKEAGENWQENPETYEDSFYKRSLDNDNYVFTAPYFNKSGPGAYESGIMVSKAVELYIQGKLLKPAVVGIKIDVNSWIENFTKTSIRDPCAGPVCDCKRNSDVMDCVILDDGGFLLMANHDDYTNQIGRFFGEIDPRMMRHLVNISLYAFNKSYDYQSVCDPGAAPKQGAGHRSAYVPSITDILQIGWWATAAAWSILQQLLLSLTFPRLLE
# Sequence (P54290 945-1091 partner limits assumed): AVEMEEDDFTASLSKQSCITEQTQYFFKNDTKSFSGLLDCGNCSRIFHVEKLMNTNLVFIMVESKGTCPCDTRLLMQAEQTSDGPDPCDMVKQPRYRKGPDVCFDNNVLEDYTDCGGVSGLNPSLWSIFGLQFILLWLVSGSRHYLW
# Sequence (P54283 whole entry partner): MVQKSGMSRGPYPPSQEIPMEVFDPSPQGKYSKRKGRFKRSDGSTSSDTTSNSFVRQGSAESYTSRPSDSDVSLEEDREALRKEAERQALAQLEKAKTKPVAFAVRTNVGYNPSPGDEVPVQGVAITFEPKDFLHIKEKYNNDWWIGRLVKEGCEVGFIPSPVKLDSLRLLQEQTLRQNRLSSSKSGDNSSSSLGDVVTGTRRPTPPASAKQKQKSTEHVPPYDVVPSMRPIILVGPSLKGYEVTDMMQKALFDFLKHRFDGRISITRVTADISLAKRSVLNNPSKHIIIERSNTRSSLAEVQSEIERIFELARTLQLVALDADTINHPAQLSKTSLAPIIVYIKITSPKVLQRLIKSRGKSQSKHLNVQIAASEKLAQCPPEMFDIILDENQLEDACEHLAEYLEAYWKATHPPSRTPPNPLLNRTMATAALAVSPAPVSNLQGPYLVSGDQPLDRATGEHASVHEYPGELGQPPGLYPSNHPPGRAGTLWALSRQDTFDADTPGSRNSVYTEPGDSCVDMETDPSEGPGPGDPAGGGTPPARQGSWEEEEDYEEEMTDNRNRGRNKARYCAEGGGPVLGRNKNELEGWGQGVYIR
# Protocol text: Whole cell patch clamp, tonic and frequency dependent block, N-type channels in HEK 293 (Example 5)
# Format: cell-based
# Condition summary: Table 4 summary, 0.2 Hz, N-type; unit not given in Table 4 (μM in Table 1); read-out: N (IC50 values)
# Description: N-type calcium channel blocking activity was assayed in human embryonic kidney cells, HEK 293, stably transfected with the rat brain N-type calcium channel subunits (α1B+α2δ+β1b cDNA subunits). […] Whole cell patch clamp experiments were performed using an Axopatch 200B amplifier (Axon Instruments, Burlingame, Calif.) linked to a personal computer equipped with pCLAMP software. […] Data were analyzed using Clampfit (Axon Instruments) and SigmaPlot 4.0 (Jandel Scientific).
Label true when IC50 is strictly below 0.09 µM; at or above that, label false.

{"Compound": "O=C(CCCCC(c1ccccc1)c1ccccc1)N1CCC(NCC2CCCCC2)CC1 [JM-G-10]", "Target or test system": "N-type calcium channels (α1B+α2δ+β1b cDNA subunits) (Rattus norvegicus)", "Group label": "true"}
{"Compound": "CC(=O)Nc1ccc(/C=C/C(=O)N2CCN(C(=O)CCCCC(c3ccccc3)c3ccccc3)CC2)cc1 [SH-136]", "Target or test system": "N-type calcium channels (α1B+α2δ+β1b cDNA subunits) (Rattus norvegicus)", "Group label": "false"}
{"Compound": "COc1cc(C(=O)N2CCN(C(c3ccc(F)cc3)c3ccc(F)cc3)CC2)cc(OC)c1OC [39-36-2]", "Target or test system": "N-type calcium channels (α1B+α2δ+β1b cDNA subunits) (Rattus norvegicus)", "Group label": "true"}
{"Compound": "O=C(CC(c1ccccc1)c1ccccc1)N1CCN(C(c2ccccc2)c2ccccc2)CC1 [39-1-B4]", "Target or test system": "N-type calcium channels (α1B+α2δ+β1b cDNA subunits) (Rattus norvegicus)", "Group label": "true"}
{"Compound": "Nc1ccc(/C=C/C(=O)N2CCN(C(=O)CCCCC(c3ccccc3)c3ccccc3)CC2)cc1 [SH-134]", "Target or test system": "N-type calcium channels (α1B+α2δ+β1b cDNA subunits) (Rattus norvegicus)", "Group label": "false"}

* * *

# Target or test system: L-type channels (α1C+α2δ+β1b cDNA subunits)
# Construct: other: α1C (L-type), 100 nM, 0.03 Hz; other: α1C (L-type), 100 nM, 0.2 Hz; other: α1C (L-type), 0.03 Hz; other: α1C (L-type), 0.2 Hz
# Protocol text: Whole cell patch clamp, tonic and frequency dependent block, L-type channels in HEK 293 (Example 5)
# Assay type: cell-based
# Condition summary: Table 4 summary, 0.2 Hz, L-type; unit not given in Table 4 (μM in Table 3); read-out: L (IC50 values)
# Method: N-type calcium channel blocking activity was assayed in human embryonic kidney cells, HEK 293, stably transfected with the rat brain N-type calcium channel subunits (α1B+α2δ+β1b cDNA subunits). […] Whole cell patch clamp experiments were performed using an Axopatch 200B amplifier (Axon Instruments, Burlingame, Calif.) linked to a personal computer equipped with pCLAMP software. […] Data were analyzed using Clampfit (Axon Instruments) and SigmaPlot 4.0 (Jandel Scientific). […]

{"Compound": "COc1ccc(/C=C/C(=O)N2CCN(C(=O)CCCCC(c3ccccc3)c3ccccc3)CC2)cc1 [SH-123A]", "Output unit": "µM", "IC50": 0.25}
{"Compound": "Nc1ccc(/C=C/C(=O)N2CCN(C(=O)CCCCC(c3ccccc3)c3ccccc3)CC2)cc1 [SH-134]", "Output unit": "µM", "IC50": 0.83}
{"Compound": "O=C(CC(c1ccccc1)c1ccccc1)N1CCN(C(c2ccccc2)c2ccccc2)CC1 [39-1-B4]", "Output unit": "µM", "IC50": 0.3}
{"Compound": "O=C(/C=C/c1ccc2c(c1)OCO2)N1CCN(C(=O)CCCCC(c2ccccc2)c2ccccc2)CC1 [SH-123B]", "Output unit": "µM", "IC50": 0.74}
{"Compound": "O=C(CCCCC(c1ccccc1)c1ccccc1)N1CCC(NCC2CCCCC2)CC1 [JM-G-10]", "Output unit": "µM", "IC50": 0.3}
{"Compound": "COc1cc(CN2CCN(CCCCCC(c3ccc(F)cc3)c3ccc(F)cc3)CC2)cc(OC)c1OC [39-45-3]", "Output unit": "µM", "IC50": 0.37}
{"Compound": "O=C(CCCCC(c1ccccc1)c1ccccc1)N1CCN(C/C=C/c2ccccc2)CC1 [MC-34D]", "Output unit": "µM", "IC50": 0.39}
{"Compound": "COc1ccc(CN2CCN(C(c3ccc(F)cc3)c3ccc(F)cc3)CC2)c(OC)c1OC [39-36-1 Lomerizine, Lomerizine, reference compound]", "Output unit": "µM", "IC50": 0.15}
{"Compound": "CC(=O)Nc1ccc(/C=C/C(=O)N2CCN(C(=O)CCCCC(c3ccccc3)c3ccccc3)CC2)cc1 [SH-136]", "Output unit": "µM", "IC50": 1.4}
{"Compound": "COc1cc(C(=O)N2CCN(C(c3ccc(F)cc3)c3ccc(F)cc3)CC2)cc(OC)c1OC [39-36-2]", "Output unit": "µM", "IC50": 0.4}

* * *

# Target or test system: N-type calcium channels (α1B+α2δ+β1b cDNA subunits) (Rattus norvegicus)
# Construct: expressed in transfected cells
# Protocol text: Whole cell patch clamp, tonic and frequency dependent block, N-type channels in HEK 293 (Example 5)
# Type: cell-based
# Condition summary: α1B (N-type), 0.03 Hz; read-out: Estimated IC50 (μM) 0.03 Hz
log10 IC50 overview
Measured endpoint: log10 IC50 (log10 of the value in µM)

{"Compound": "O=C(CC(c1ccccc1)c1ccccc1)N1CCN(C(c2ccccc2)c2ccccc2)CC1", "Measured endpoint": "log10 IC50", "Endpoint result": -0.70}
{"Compound": "O=C(/C=C/c1ccc2c(c1)OCO2)N1CCN(C(=O)CCCCC(c2ccccc2)c2ccccc2)CC1 [SH-123B]", "Measured endpoint": "log10 IC50", "Endpoint result": 0.10}
{"Compound": "COc1cc(C(=O)N2CCN(C(c3ccc(F)cc3)c3ccc(F)cc3)CC2)cc(OC)c1OC", "Measured endpoint": "log10 IC50", "Endpoint result": -0.49}
{"Compound": "COc1ccc(/C=C/C(=O)N2CCN(C(=O)CCCCC(c3ccccc3)c3ccccc3)CC2)cc1 [SH-123A]", "Measured endpoint": "log10 IC50", "Endpoint result": -0.33}
{"Compound": "COc1ccc(CN2CCN(C(c3ccc(F)cc3)c3ccc(F)cc3)CC2)c(OC)c1OC [39-36-1 Lomerizine, Lomerizine, reference compound]", "Measured endpoint": "log10 IC50", "Endpoint result": -0.41}
{"Compound": "O=C(CCCCC(c1ccccc1)c1ccccc1)N1CCN(C/C=C/c2ccccc2)CC1 [MC-34D]", "Measured endpoint": "log10 IC50", "Endpoint result": -0.92}
{"Compound": "COc1cc(CN2CCN(CCCCCC(c3ccc(F)cc3)c3ccc(F)cc3)CC2)cc(OC)c1OC", "Measured endpoint": "log10 IC50", "Endpoint result": -1.00}
{"Compound": "CC(=O)Nc1ccc(/C=C/C(=O)N2CCN(C(=O)CCCCC(c3ccccc3)c3ccccc3)CC2)cc1", "Measured endpoint": "log10 IC50", "Endpoint result": -0.20}
{"Compound": "O=C(CCCCC(c1ccccc1)c1ccccc1)N1CCC(NCC2CCCCC2)CC1", "Measured endpoint": "log10 IC50", "Endpoint result": -0.77}
{"Compound": "Nc1ccc(/C=C/C(=O)N2CCN(C(=O)CCCCC(c3ccccc3)c3ccccc3)CC2)cc1", "Measured endpoint": "log10 IC50", "Endpoint result": -0.36}
